Tested on: MCF-7
ASSAY_INFO: In vitro antiproliferative MTT assay, MCF-7
Assay type: cell-based
PROTOCOL_CONDITIONS: Homo sapiens, MCF7, read-out: IC50 MCF-7
VALUE_KIND: IC50 (µM)

(a) CCN(CC)C(=S)N/N=C(\C)c1ccc(S(=O)(=O)N2CCC(C)CC2)cc1
(b) COc1cccc2c1C(=O)c1c(O)c3c(c(O)c1C2=O)C[C@@](O)(C(=O)CO)C[C@@H]3O[C@H]1C[C@H](N)[C@H](O)[C@H](C)O1
(c) C/C(=N\N)c1ccc(S(=O)(=O)N2CCC(C)CC2)cc1
Request: Kindly sort the 3 compounds above from the smallest to the largest IC50. Your task in answering is to list the labels in the requested order.
Response: b, a, c
